Values from patent US20250011363A1

assayed_system: acetylcholine receptor
assay_notes: SPR, receptor immobilized, peptide 10 uM
# label = bin(measured Binding affinity (RU)), where bins are low-valued: < 20 RU; mid-valued: ≥ 20 RU and < 30 RU; high-valued: ≥ 30 RU

{"binder": "KIPWR [5mer-1058]", "classification": "mid-valued"}
{"binder": "KTHIK [5mer-1060]", "classification": "mid-valued"}
{"binder": "RFHGR [5mer-1098]", "classification": "high-valued"}
{"binder": "RKWVK [5mer-771]", "classification": "mid-valued"}
{"binder": "RPCPR [5mer-1074]", "classification": "low-valued"}
{"binder": "KETHK [5mer-797]", "classification": "low-valued"}
{"binder": "KEAWK [5mer-1078]", "classification": "low-valued"}
{"binder": "RITNKR [6mer-2-824]", "classification": "mid-valued"}
{"binder": "KKKKR [5mer-1087]", "classification": "low-valued"}
{"binder": "RRRVYK [6mer-1-186]", "classification": "high-valued"}
{"binder": "RKVFQR [6mer-1-145]", "classification": "high-valued"}
{"binder": "KPNFRR [6mer-2-860]", "classification": "high-valued"}
{"binder": "KDTDRK [6mer-2-861]", "classification": "mid-valued"}
{"binder": "RRRIQR [6mer-1-201]", "classification": "high-valued"}
{"binder": "RCNWKR [6mer-2-854]", "classification": "mid-valued"}
{"binder": "RPSFK [5mer-1069]", "classification": "high-valued"}
{"binder": "KHKMR [5mer-759]", "classification": "low-valued"}
{"binder": "RDNPKK [6mer-2-866]", "classification": "mid-valued"}
{"binder": "RYAHR [5mer-1051]", "classification": "mid-valued"}
{"binder": "KKQIQR [6mer-1-147]", "classification": "high-valued"}
{"binder": "RTAWKK [6mer-2-800]", "classification": "low-valued"}
{"binder": "RKNER [5mer-754]", "classification": "mid-valued"}
{"binder": "KHENK [5mer-1067]", "classification": "mid-valued"}
{"binder": "RIDPR [5mer-781]", "classification": "mid-valued"}
{"binder": "KPKMRR [6mer-2-842]", "classification": "mid-valued"}
{"binder": "KRGRRR [6mer-1-146]", "classification": "high-valued"}
{"binder": "RIAKRK [6mer-2-888]", "classification": "low-valued"}
{"binder": "KTKMR [5mer-791]", "classification": "mid-valued"}
{"binder": "KTWVRR [6mer-2-886]", "classification": "low-valued"}
{"binder": "KYAEKK [6mer-2-827]", "classification": "low-valued"}
{"binder": "KYCMR [5mer-757]", "classification": "low-valued"}
{"binder": "KPDIR [5mer-1097]", "classification": "mid-valued"}
